# TARGET: HIV protease mutant enzyme K-60 (Human immunodeficiency virus type 1, UniProt P04585)
# TEST DETAILS: inhibition of microbial expressed HIV protease (WO 01/05230), mutant enzyme K-60

[
  {
    "SMILES RECORD": "COc1cncc(-c2cnc(C(C)(C)N3CCN(C[C@@H](O)C[C@@H](Cc4ccccc4)C(=O)N[C@H]4c5ccccc5OC[C@H]4O)[C@H](C(=O)NCC(F)(F)F)C3)o2)c1",
    "IC50": "< 5 nM"
  }
]
